Exercise: state measured % Phosphatase Activity (compared to DMSO) PRL-2 for each of the molecules provided.
Target: recombinant PRL-2 (Homo sapiens)
Construct: 6xHis (N, cleaved yes); made in house; host or cells: E. coli One Shot BL21 Star
Sequence (Q12974 whole entry): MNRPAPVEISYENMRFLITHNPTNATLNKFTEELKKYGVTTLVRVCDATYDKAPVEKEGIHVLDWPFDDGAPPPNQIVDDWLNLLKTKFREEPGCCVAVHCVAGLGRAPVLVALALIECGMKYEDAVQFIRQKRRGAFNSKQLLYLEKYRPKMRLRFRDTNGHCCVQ
Assay: In vitro phosphatase assay (DiFMUP hydrolysis), PRL-2;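 further: PRL-2 activity read as DiFMUP hydrolysis after 20 min at room temperature with drug, enzyme first pre-reduced at 4 °C for 20 min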
Type: biochemical
Conditions: FDA-approved drug screen; compared to DMSO
Answers are plain numbers, in %.

Here is how some molecules turned out for % Phosphatase Activity (compared to DMSO) PRL-2.
# molecule, output-unit, result
rows = [
    ("Cc1ccc(S(=O)(=O)NC(=O)NN2CC3CCCC3C2)cc1 (centres unmarked) [Gliclazide]", "%", 138),
    ("C#C[C@]1(O)CC[C@H]2[C@@H]3CCC4=CC(=O)CC[C@@H]4[C@H]3CC[C@@]21C", "%", 104),
]

Dear reader, for each entry below, please note its % Phosphatase Activity (compared to DMSO) PRL-2.
1. CC(=O)Nc1ccccc1 [Acetanilide]
2. CC(=O)[C@H]1CC[C@H]2[C@@H]3CC=C4C[C@@H](O)CC[C@]4(C)[C@H]3CC[C@]12C
3. CN1C(C(=O)Nc2ccccn2)=C(O)c2sc(Cl)cc2S1(=O)=O

[110, 101, 84]

Source of measurements: paper PMC8119466
